Measured EC50 of individual entries
Measurement target: human alpha 7-wt nAChR (Homo sapiens, UniProt P36544)
Construct: expressed in transfected cells
Sequence (P36544 23-502): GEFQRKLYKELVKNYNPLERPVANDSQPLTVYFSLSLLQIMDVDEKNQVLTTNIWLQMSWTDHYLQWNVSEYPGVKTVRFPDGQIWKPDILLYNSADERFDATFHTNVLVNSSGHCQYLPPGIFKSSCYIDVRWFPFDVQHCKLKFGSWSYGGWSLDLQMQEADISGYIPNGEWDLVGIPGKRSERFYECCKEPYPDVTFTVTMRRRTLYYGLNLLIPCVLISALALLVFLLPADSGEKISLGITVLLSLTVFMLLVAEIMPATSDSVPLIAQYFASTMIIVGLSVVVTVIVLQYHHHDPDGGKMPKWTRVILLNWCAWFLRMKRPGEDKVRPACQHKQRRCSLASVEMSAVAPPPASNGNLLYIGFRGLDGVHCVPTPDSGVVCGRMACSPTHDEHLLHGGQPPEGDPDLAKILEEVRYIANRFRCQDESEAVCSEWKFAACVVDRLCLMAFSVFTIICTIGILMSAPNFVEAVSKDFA
Assay remarks: Ca2+ flux imaging (FDSS) (Protocol B)
Type: cell-based
Run parameters: potentiation of 100 μM choline; compounds 0.01 μM to 30 μM; read-out: a7-PAM-G_[33]_pEC50 pEC50 (converted)
Entry rule: numbers only, all in nM.

Known EC50 results, listed for orientation:
Cc1cc(-c2sc(N3C[C@@H](C)O[C@@H](C)C3)nc2CNC(=O)c2cccc(F)c2F)cc(C)n1
380
Cc1cc(-c2sc(N3C[C@@H](C)O[C@@H](C)C3)nc2CNC(=O)c2cccc(F)c2)ccn1
479
CC(C)CC(=O)NCc1nc(N2C[C@@H](C)O[C@@H](C)C2)sc1-c1ccncc1
1290

Next, consider the following molecule.
Query: Which EC50 is reported for this molecule? Cc1cc(-c2sc(N3C[C@@H](C)O[C@@H](C)C3)nc2CNC(=O)c2cc(C(C)(C)C)on2)cc(C)n1
Reply: 891
